- assayed-target: full-length WT STING (Homo sapiens (Human), UniProt Q86WV6, H232R)
- Sequence (Q86WV6 other isoform, or with tags, fused parts or gaps H232R (already in the parent)): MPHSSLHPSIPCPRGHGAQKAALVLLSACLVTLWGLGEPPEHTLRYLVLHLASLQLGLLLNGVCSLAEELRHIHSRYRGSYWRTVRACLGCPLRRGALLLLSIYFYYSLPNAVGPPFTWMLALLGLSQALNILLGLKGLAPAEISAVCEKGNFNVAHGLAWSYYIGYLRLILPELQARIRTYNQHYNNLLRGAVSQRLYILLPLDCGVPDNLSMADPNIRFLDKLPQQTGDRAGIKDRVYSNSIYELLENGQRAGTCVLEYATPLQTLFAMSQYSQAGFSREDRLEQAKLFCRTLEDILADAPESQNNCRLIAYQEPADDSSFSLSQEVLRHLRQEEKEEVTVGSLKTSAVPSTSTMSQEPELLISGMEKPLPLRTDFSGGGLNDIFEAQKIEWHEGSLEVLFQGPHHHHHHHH
- method-description: 3H-cGAMP filtration binding assay (WT STING)
- condition-set: WT STING, compound at 20 uM
# if value of inhibition at 20 µM reaches 20%, tag Criterion met; if it stays below, tag Criterion not met

compound: COc1cc2sc(C(=O)CCC(=O)O)c(Cl)c2cc1OC [Example 27]
classification: Criterion not met
--
compound: CCOC(=O)C(C)(O)CC(=O)c1cc2cc(OC)c(OC)cc2s1 (centres unmarked) [Example 48]
classification: Criterion met
--
compound: COc1cc2cc(C(=O)CC(C(=O)O)C3CC3)sc2cc1OC (centres unmarked) [Example 3]
classification: Criterion met
--
compound: COc1cc2sc(C(=O)[C@H]3C[C@H]3C(=O)O)cc2c(F)c1OC [Example 51]
classification: Criterion not met

input: Please check the record Cc1cc2sc(C(=O)C[C@H](C)C(=O)O)cc2cc1Br [Example 34] and state if its inhibition at 20 µM is at or above 20%.
output: Criterion not met

input: Please check the record Cc1cc2cc(C(=O)C[C@H](C)C(=O)O)sc2cc1Br [Example 29] and state if its inhibition at 20 µM is at or above 20%.
output: Criterion not met

input: Please check the record COc1cc2sc(C(=O)CCC(=O)O)cc2cc1Br [Example 19] and state if its inhibition at 20 µM is at or above 20%.
output: Criterion met

input: Please check the record C=Cc1cc2cc(C(=O)CCC(=O)O)sc2cc1OC [Example 18] and state if its inhibition at 20 µM is at or above 20%.
output: Criterion met

input: Please check the record COc1cc2cc(C(=O)CCC(=O)O)sc2cc1OC(F)F [Example 53] and state if its inhibition at 20 µM is at or above 20%.
output: Criterion not met

input: Please check the record CNc1cc2cc(C(=O)CCC(=O)O)sc2cc1OC [Example 10] and state if its inhibition at 20 µM is at or above 20%.
output: Criterion met

input: Please check the record CCOc1cc2sc(C(=O)C[C@H](C)C(=O)O)cc2cc1Cl [Example 33] and state if its inhibition at 20 µM is at or above 20%.
output: Criterion met
